The reported numbers originate from ChEMBL document CHEMBL3259675.

Test: Tmax in Sprague-Dawley rat at 25 mg/kg, ig administered as single dose
Assay type: ADME, organism-based
Set-up: dose 25 mg/kg, route intragastric
Details: in vivo, po

{"columns": ["ENTRY SMILES", "Tmax / min"],
 "data": [
  ["OCCCC[C@@H]1[C@H]2CCCN3CCC[C@H](CN1Cc1ccc(Cl)cc1)[C@@H]23", 39.6]
]}

---

System: KB
Assay: Antiproliferative activity against human KB cells assessed as growth inhibition after 48 hrs by MTT assay
Assay type: functional, cell-based
pIC50: −log10 of the molar value.

{"columns": ["COMPOUND", "RELATIONAL OPERATOR", "pIC50"],
 "data": [
  ["OCCCC[C@@H]1[C@H]2CCCN3CCC[C@H](CN1Cc1ccc(Cl)cc1)[C@@H]23", "=", 4.71],
  ["COC(=O)CCC[C@@H]1[C@H]2CCCN3CCC[C@H](CN1Cc1ccc(Cl)cc1)[C@@H]23", "=", 5.21],
  ["CC[C@@]1(O)C(=O)OCc2c1cc1n(c2=O)Cc2cc3c(CN(C)C)c(O)ccc3nc2-1 [TOPOTECAN]", "<", 3.70]
]}

---

Assay: Half life in Sprague-Dawley rat at 25 mg/kg, ig administered as single dose
Assay type: ADME, organism-based
Parameters: dose 25 mg/kg, route intragastric
Conditions: in vivo, po

{"columns": ["ENTRY SMILES", "DISPLAY UNIT", "half-life"],
 "data": [
  ["OCCCC[C@@H]1[C@H]2CCCN3CCC[C@H](CN1Cc1ccc(Cl)cc1)[C@@H]23", "h", 3.87]
]}

---

Experiment: Cmax in Sprague-Dawley rat at 25 mg/kg, ig administered as single dose
Format: ADME, organism-based
Design: dose 25 mg/kg, route intragastric
Details: in vivo, po
MEASUREMENT TYPE: Cmax (µM)

{"columns": ["ENTRY SMILES", "VALUE OBSERVED"],
 "data": [
  ["OCCCC[C@@H]1[C@H]2CCCN3CCC[C@H](CN1Cc1ccc(Cl)cc1)[C@@H]23", 5.25]
]}

---

Experiment: AUC (0 to time) in Sprague-Dawley rat at 5 mg/kg, iv administered as single dose
Format: ADME, organism-based
Design: dose 5 mg/kg, route intravenous
Conditions: plasma

{"columns": ["ENTRY SMILES", "AUC / µM·h"],
 "data": [
  ["OCCCC[C@@H]1[C@H]2CCCN3CCC[C@H](CN1Cc1ccc(Cl)cc1)[C@@H]23", 20.5]
]}

---

Tested on: NCI-H1299
Test: Antiproliferative activity against human NCI-H1299 cells assessed as growth inhibition after 48 hrs by MTT assay
Type: functional, cell-based
Conditions: NCI-H1299, 48 h
pIC50: −log10 of the molar value.
MEASUREMENT TYPE: pIC50

{"columns": ["ENTRY SMILES", "MEASUREMENT TYPE", "VALUE OBSERVED"],
 "data": [
  ["OCCCC[C@@H]1[C@H]2CCCN3CCC[C@H](CN1Cc1ccc(Cl)cc1)[C@@H]23", "pIC50", 5.26],
  ["CC[C@@]1(O)C(=O)OCc2c1cc1n(c2=O)Cc2cc3c(CN(C)C)c(O)ccc3nc2-1", "pIC50", 4.96],
  ["COC(=O)CCC[C@@H]1[C@H]2CCCN3CCC[C@H](CN1Cc1ccc(Cl)cc1)[C@@H]23", "pIC50", 5.39]
]}

---

Test system: HepG2
Test: Antiproliferative activity against human HepG2 cells assessed as growth inhibition at 10 ug/ml after 48 hrs by MTT assay
Type: functional
Conditions: HepG2, 48 h
Response key: T means inhibition at 10 µg/mL >= 30%; F means inhibition at 10 µg/mL < 30%.

{"columns": ["ENTRY SMILES", "DISCRETE LABEL"],
 "data": [
  ["OCCCC[C@@H]1[C@H]2CCCN3CCC[C@H](CN1Cc1ccco1)[C@@H]23", "T"],
  ["COC(=O)CCC[C@@H]1[C@H]2CCCN3CCC[C@H](CN1Cc1ccccc1F)[C@@H]23", "T"],
  ["COC(=O)CCC[C@@H]1[C@H]2CCCN3CCC[C@H](CN1Cc1ccc(Br)cc1)[C@@H]23", "T"],
  ["O=C(O)CCC[C@@H]1[C@H]2CCCN3CCC[C@H](CN1Cc1ccc(Br)cc1)[C@@H]23", "F"],
  ["NC(=O)CCC[C@@H]1[C@H]2CCCN3CCC[C@H](CN1Cc1ccc(Cl)cc1)[C@@H]23", "F"],
  ["Cc1ccc(CN2C[C@H]3CCCN4CCC[C@@H]([C@H]34)[C@H]2CCCCO)cc1", "F"],
  ["OCCCC[C@@H]1[C@H]2CCCN3CCC[C@H](CN1CCc1ccccc1)[C@@H]23", "T"]
]}

---

System: HepG2
Test: Antiproliferative activity against human HepG2 cells assessed as growth inhibition at 10 ug/ml after 48 hrs by MTT assay
Type: functional
Conditions: HepG2, 48 h
Readings of inhibition at 10 µg/mL for the listed molecules

{"columns": ["MOLECULE", "DISPLAY UNIT", "inhibition at 10 µg/mL"],
 "data": [
  ["OCCCC[C@@H]1[C@H]2CCCN3CCC[C@H](CN1Cc1cccc(F)c1)[C@@H]23", "%", 24.3],
  ["OCCCC[C@@H]1[C@H]2CCCN3CCC[C@H](CN1Cc1ccc(F)cc1)[C@@H]23", "%", 35.7],
  ["OCCCC[C@@H]1[C@H]2CCCN3CCC[C@@H](CN1Cc1ccc(Cl)cc1)[C@@H]23", "%", 4.9],
  ["O=C(O)CCC[C@@H]1[C@H]2CCCN3CCC[C@H](CN1Cc1ccncc1)[C@@H]23", "%", 22.3],
  ["O=C(O)CCC[C@@H]1[C@H]2CCCN3CCC[C@H](CN1Cc1ccccc1)[C@@H]23", "%", 1.5],
  ["CC[C@@]1(O)C(=O)OCc2c1cc1n(c2=O)Cc2cc3c(CN(C)C)c(O)ccc3nc2-1 [TOPOTECAN]", "%", 72.6]
]}

---

Tested on: HepG2
Assay: Antiproliferative activity against human HepG2 cells assessed as growth inhibition at 10 ug/ml after 48 hrs by MTT assay
Type: functional
Conditions: HepG2, 48 h
Please note: Criterion met applies when inhibition at 10 µg/mL is 4% or greater, and Criterion not met applies otherwise.

{"columns": ["ENTRY SMILES", "DISCRETE LABEL"],
 "data": [
  ["COCCCC[C@@H]1[C@H]2CCCN3CCC[C@H](CN1Cc1ccccc1)[C@@H]23", "Criterion met"],
  ["OCCCC[C@@H]1[C@H]2CCCN3CCC[C@H](CN1Cc1ccccc1)[C@@H]23", "Criterion met"],
  ["CCOCCCC[C@@H]1[C@H]2CCCN3CCC[C@H](CN1Cc1ccc(F)cc1)[C@@H]23", "Criterion met"],
  ["O=C(O)CCC[C@@H]1[C@H]2CCCN3CCC[C@H](CN1Cc1ccccc1F)[C@@H]23", "Criterion not met"],
  ["CC(C)(C)CN1C[C@H]2CCCN3CCC[C@@H]([C@H]23)[C@H]1CCCCO", "Criterion met"],
  ["OCCCC[C@@H]1[C@H]2CCCN3CCC[C@H](CN1Cc1ccccc1Cl)[C@@H]23", "Criterion met"],
  ["CCOCCCC[C@@H]1[C@H]2CCCN3CCC[C@H](CN1Cc1ccccc1)[C@@H]23", "Criterion not met"],
  ["O=C(O)CCC[C@@H]1[C@H]2CCCN3CCC[C@H](CN1Cc1ccc(F)cc1)[C@@H]23", "Criterion not met"],
  ["COCCCC[C@@H]1[C@H]2CCCN3CCC[C@H](CN1Cc1ccc(Cl)cc1)[C@@H]23", "Criterion not met"],
  ["COC(=O)CCC[C@@H]1[C@H]2CCCN3CCC[C@H](CN1Cc1ccc(Cl)cc1)[C@@H]23", "Criterion met"],
  ["CC(C)CN1C[C@H]2CCCN3CCC[C@@H]([C@H]23)[C@H]1CCCCO", "Criterion met"],
  ["COC(=O)CCC[C@@H]1[C@H]2CCCN3CCC[C@H](CN1Cc1ccc(F)cc1)[C@@H]23", "Criterion met"],
  ["CCCN1C[C@H]2CCCN3CCC[C@@H]([C@H]23)[C@H]1CCCCO", "Criterion not met"],
  ["COC(=O)CCC[C@H]1NC[C@H]2CCCN3CCC[C@H]1[C@H]23", "Criterion met"],
  ["CCCN1C[C@H]2CCCN3CCC[C@@H]([C@H]23)[C@H]1CCCC(=O)OC", "Criterion met"],
  ["COC(=O)CCC[C@@H]1[C@H]2CCCN3CCC[C@H](CN1Cc1cccc(Cl)c1)[C@@H]23", "Criterion met"],
  ["COC(=O)CCC[C@@H]1[C@H]2CCCN3CCC[C@H](CN1Cc1ccco1)[C@@H]23", "Criterion met"]
]}
